Task for the reader: assign each of the following variants its reported protein stability index.
B1: INTS3 (parent)
chain: EEITEESLEESVGKPLYLIFRNLC

Variants of: B1
TEST_SUMMARY: protein stability index of a GFP-peptide fusion (GPS, HEK-293T) (PSI 1-6); higher = more stable;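 further: lentivirally expressed fusions sorted by FACS into six bins by GFP to DsRed ratio, PSI derived from sequencing read proportions per bin multiplied by bin number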
APPLIED_CONDITIONS: c terminus: a fixed tail appended

// for each variant in input: emit protein stability index
1. I19D
2. K14E
3. S7F
4. Y17A
5. V12K
6. E2K
7. P15C
8. I19M

Found:
1. 3.89
2. 3.54
3. 2.33
4. 3.32
5. 3.54
6. 2.02
7. 2.05
8. 3.06

// for each variant in input: emit protein stability index
1. I19N
2. E10K
3. S11Q
4. I3Q
5. Y17I
6. G13R

Found:
3.92
2.5
3.33
3.36
2.62
2.7

// for each variant in input: emit protein stability index
1. V12W
2. L8E
3. I19G
4. S7I
5. I3K

Found:
2.47
3.2
3.67
2.47
3.04
